assay.text: Protein binding in mouse lungs assessed as fraction unbound at 5 uM measured after 5 hrs by LC-MS/MS analysis
endpoint.label: fraction unbound at 5 h, 5 µM

Example molecules with recorded fraction unbound at 5 h, 5 µM:
# mol, fraction unbound at 5 h, 5 µM
data = [
    ("COC(=O)Nc1nc(C)c(S(=O)(=O)N2CCN(C[C@H](C)Nc3ncnc4c(-c5cccc(CN(C)C)c5)cccc34)CC2)s1", 0.0177),
    ("Cc1csc2c(N[C@@H](C)CN3CCN(S(=O)(=O)c4ccc(Cl)c(Cl)c4)CC3)ncnc12", 0.001),
    ("COC(=O)Nc1nc(C)c(S(=O)(=O)N2CCN(C[C@H](C)Nc3ncnc4c(-c5cn(C)nc5C(F)(F)F)cccc34)CC2)s1", 0.0122),
]

[I] COC(=O)Nc1nc(C)c(S(=O)(=O)N2CCN(C[C@H](C)Nc3ncnc4c(C)csc34)CC2)s1
[II] COC(=O)Nc1nc(C)c(S(=O)(=O)N2CCN(C[C@H](C)Nc3ncnc4c(-c5cccc(CN6CCCC6)c5)cccc34)CC2)s1
Input line: Field: entry with larger fraction unbound at 5 h, 5 µM (options I / II ). When you have decided, please share the label of that item.
Output line: I
(I: 0.0385, II: 0.0187)

###

assay.text: in vivo
condition.parameters: C57BL/6J, mouse, plasma, po, 30 mg/kg
endpoint.label: Cmax (µg/mL)

# mol, display.unit, Cmax
measured = [
    ("COC(=O)Nc1nc(C)c(S(=O)(=O)N2CCN(C[C@H](C)Nc3ncnc4c(-c5cccnc5C)cccc34)CC2)s1", "µg/mL", 81.2),
    ("COC(=O)Nc1nc(C)c(S(=O)(=O)N2CCN(C[C@H](C)Nc3ncnc4c(-c5sc(C)nc5C)cccc34)CC2)s1", "µg/mL", 72.3),
]

[a] COC(=O)Nc1nc(C)c(S(=O)(=O)N2CCN(C[C@H](C)Nc3ncnc4c(-c5c(C)noc5C)cccc34)CC2)s1
[b] COC(=O)Nc1nc(C)c(S(=O)(=O)N2CCN(C[C@H](C)Nc3ncnc4c(-c5cccc(CN(C)C)c5)cccc34)CC2)s1
[c] COC(=O)Nc1nc(C)c(S(=O)(=O)N2CCN(C[C@H](C)Nc3ncnc4c(-c5cccc(CN6CCCC6)c5)cccc34)CC2)s1
Input line: List from greatest to least Cmax. To answer, write out the labels according to the requested order.
Output line: a, b, c
(a: 76.2 µg/mL, b: 12.1 µg/mL, c: 4.23 µg/mL)

###

assay.text: in vivo
condition.parameters: C57BL/6J, mouse, plasma, po, 26.5 mg/kg
Description: Total AUC last in C57BL/6J mouse plasma at 26.5 mg/kg, po and 2 mg/kg, iv by LC-MS/MS analysis
endpoint.label: AUC(0-t) (µg·h/mL)
Respond with the bare value in µg·h/mL.

Input line: Any idea what its AUC(0-t) is? The compound is COC(=O)Nc1nc(C)c(S(=O)(=O)N2CCN(C[C@H](C)Nc3ncnc4c(-c5ccc(C)nc5)cccc34)CC2)s1
Output line: 280

###

assay.text: Efflux ratio of apparent permeability across apical to basolateral to basolateral to apical side in human Caco-2 cells at 10 uM measured after 60 mins by LC-MS/MS analysis
endpoint.label: efflux ratio at 1 h, 10 µM

# mol, efflux ratio at 1 h, 10 µM
rows = [
    ("COC(=O)Nc1nc(C)c(S(=O)(=O)N2CCN(C[C@H](C)Nc3ncnc4c(-c5cccc(CN(C)C)c5)cccc34)CC2)s1", 60),
    ("COC(=O)Nc1nc(C)c(S(=O)(=O)N2CCN(C[C@H](C)Nc3ncnc4c(-c5sc(C)nc5C)cccc34)CC2)s1", 0.6),
    ("COC(=O)Nc1nc(C)c(S(=O)(=O)N2CCN(C[C@H](C)Nc3ncnc4c(-c5cn(C)nc5C(F)(F)F)cccc34)CC2)s1", 2.9),
]

[A] COC(=O)Nc1nc(C)c(S(=O)(=O)N2CCN(C[C@H](C)Nc3ncnc4c(-c5cccc(CN6CCCC6)c5)cccc34)CC2)s1
[B] COC(=O)Nc1nc(C)c(S(=O)(=O)N2CCN(C[C@H](C)Nc3ncnc4c(-c5ccc(C)nc5)cccc34)CC2)s1
Input line: From the items above, decide which of A and B has the lower efflux ratio at 1 h, 10 µM reading. Bench note: the answer is the label of the chosen record.
Output line: B

###

assay.text: in vivo
condition.parameters: C57BL/6J, mouse, po, 24.8 mg/kg
Description: Oral availability in C57BL/6J mouse at 24.8 mg/kg by LC-MS/MS analysis
endpoint.label: bioavailability (%)
Response body: numeric value in %, unit text excluded.

Input line: # lookup: bioavailability of COC(=O)Nc1nc(C)c(S(=O)(=O)N2CCN(C[C@H](C)Nc3ncnc4c(-c5cn(C)nc5C(F)(F)F)cccc34)CC2)s1
Output line: 89

###

assay.text: in vitro
condition.parameters: human, liver microsomes, CLH
Description: Intrinsic clearance in human liver microsomes at 0.5 uM in presence of NADPH regenerating system measured for 45 mins per mg protein by LC-MS/MS analysis
endpoint.label: microsomal CLint at 0.75 h, 0.5 µM (µL/min/mg)

# compound, recorded.result
rows = [
    ("COC(=O)Nc1nc(C)c(S(=O)(=O)N2CCN(C[C@H](C)Nc3ncnc4c(-c5cccc(CN6CCCC6)c5)cccc34)CC2)s1", 104),
    ("CC(CN1CCN(S(=O)(=O)c2ccc(Cl)c(Cl)c2)CC1)Nc1ncnc2c(-c3ccccc3)csc12 (racemic)", 228),
    ("Cc1csc2c(N[C@@H](C)CN3CCN(S(=O)(=O)c4ccc(Cl)c(Cl)c4)CC3)ncnc12", 758),
]

[a] COC(=O)Nc1nc(C)c(S(=O)(=O)N2CCN(C[C@H](C)Nc3ncnc4c(-c5ccc(C)nc5)cccc34)CC2)s1
[b] COC(=O)Nc1nc(C)c(S(=O)(=O)N2CCN(C[C@H](C)Nc3ncnc4c(-c5sc(C)nc5C)cccc34)CC2)s1
Input line: Given the listed records, identify the one among a and b with higher microsomal CLint at 0.75 h, 0.5 µM. Lab note: record the label of whichever item you select.
Output line: a
(a: 34 µL/min/mg, b: 15 µL/min/mg)

[I] COC(=O)Nc1nc(C)c(S(=O)(=O)N2CCN(C[C@H](C)Nc3ncnc4c(C)csc34)CC2)s1
[II] COC(=O)Nc1nc(C)c(S(=O)(=O)N2CCN(C[C@H](C)Nc3ncnc4c(-c5cn(C)nc5C(F)(F)F)cccc34)CC2)s1
Input line: From the items above, decide which of I and II has the lower microsomal CLint at 0.75 h, 0.5 µM reading. Write down the label of the entry you select.
Output line: II

###

assay.text: in vivo
condition.parameters: C57BL/6J, mouse, lung, po, 26.5 mg/kg
Description: Total AUC last in C57BL/6J mouse lungs at 26.5 mg/kg, po and 2 mg/kg, iv by LC-MS/MS analysis
endpoint.label: AUC(0-t) (ng·h/mL)
Give the number; ng·h/mL is assumed, so skip it.

Input line: Given the entry COC(=O)Nc1nc(C)c(S(=O)(=O)N2CCN(C[C@H](C)Nc3ncnc4c(-c5ccc(C)nc5)cccc34)CC2)s1 , report its measured AUC(0-t).
Output line: 50500

###

assay.text: in vivo
condition.parameters: C57BL/6J, mouse, plasma, po, 30 mg/kg
endpoint.label: AUC(0-t) (µg·h/mL)

In the examples that follow, each entry is paired with its recorded AUC(0-t).
# mol, display.unit, recorded.result
measured = [
    ("COC(=O)Nc1nc(C)c(S(=O)(=O)N2CCN(C[C@H](C)Nc3ncnc4c(-c5c(C)noc5C)cccc34)CC2)s1", "µg·h/mL", 124),
    ("COC(=O)Nc1nc(C)c(S(=O)(=O)N2CCN(C[C@H](C)Nc3ncnc4c(-c5sc(C)nc5C)cccc34)CC2)s1", "µg·h/mL", 230),
]

[P] COC(=O)Nc1nc(C)c(S(=O)(=O)N2CCN(C[C@H](C)Nc3ncnc4c(-c5cccnc5C)cccc34)CC2)s1
[Q] COC(=O)Nc1nc(C)c(S(=O)(=O)N2CCN(C[C@H](C)Nc3ncnc4c(-c5cccc(CN(C)C)c5)cccc34)CC2)s1
[R] COC(=O)Nc1nc(C)c(S(=O)(=O)N2CCN(C[C@H](C)Nc3ncnc4c(-c5cccc(CN6CCCC6)c5)cccc34)CC2)s1
Input line: # ascending order, key=AUC(0-t) Respond with the label ranking, as requested.
Output line: R, Q, P

###

assay.text: Half life in C57BL/6J mouse at 30 mg/kg, po and 2 mg/kg, iv by LC-MS/MS analysis
condition.parameters: in vivo
endpoint.label: half-life (h)

# mol, recorded.result
data = [
    ("COC(=O)Nc1nc(C)c(S(=O)(=O)N2CCN(C[C@H](C)Nc3ncnc4c(-c5cccc(CN6CCCC6)c5)cccc34)CC2)s1", 2.45),
    ("COC(=O)Nc1nc(C)c(S(=O)(=O)N2CCN(C[C@H](C)Nc3ncnc4c(-c5c(C)noc5C)cccc34)CC2)s1", 1.32),
    ("COC(=O)Nc1nc(C)c(S(=O)(=O)N2CCN(C[C@H](C)Nc3ncnc4c(-c5cccc(CN(C)C)c5)cccc34)CC2)s1", 2.6),
    ("COC(=O)Nc1nc(C)c(S(=O)(=O)N2CCN(C[C@H](C)Nc3ncnc4c(-c5cccnc5C)cccc34)CC2)s1", 1.74),
    ("COC(=O)Nc1nc(C)c(S(=O)(=O)N2CCN(C[C@H](C)Nc3ncnc4c(-c5sc(C)nc5C)cccc34)CC2)s1", 1.88),
]
